- TESTED_TARGET: CDK9 (Homo sapiens)
- Construct: host or cells: HEK293
- Sequence (P50750 whole entry): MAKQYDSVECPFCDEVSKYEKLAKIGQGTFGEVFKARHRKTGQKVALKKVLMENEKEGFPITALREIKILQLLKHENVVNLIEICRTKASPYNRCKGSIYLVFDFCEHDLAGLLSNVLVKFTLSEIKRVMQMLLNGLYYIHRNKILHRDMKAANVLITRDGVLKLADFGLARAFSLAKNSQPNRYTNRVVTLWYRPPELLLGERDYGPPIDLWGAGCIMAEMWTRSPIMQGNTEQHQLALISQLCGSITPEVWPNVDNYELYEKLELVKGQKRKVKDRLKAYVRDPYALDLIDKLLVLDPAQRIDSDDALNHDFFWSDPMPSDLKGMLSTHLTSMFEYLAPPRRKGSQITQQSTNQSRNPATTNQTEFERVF
- TEST_DETAILS: CDK9 HIBIT PQ (protein quantification), degradation
- Format: cell-based
- SETTINGS: Max = Maximum
Entries and their measured CDK9 HIBIT PQ Max (%) follow.
Give your result in % as a bare value.

CC(C)Oc1c(-c2cn[nH]c2)ncn2nc(Nc3ccc(S(=O)(=O)N4CCC[C@H](CN5CC[C@@H](c6ccc7c(N8CCC(=O)NC8=O)nn(C)c7c6)CC5(C)C)C4)cc3F)nc12 (single isomer, unassigned) [Compound 102] :: 75

Query: Which value of CDK9 HIBIT PQ Max (%) has been reported for CC(C)Oc1c(-c2cn[nH]c2)ncn2nc(Nc3ccc(S(=O)(=O)c4cccc(C(C)N5CCC(c6ccc7c(N8CCC(=O)NC8=O)nn(C)c7c6)CC5)c4)cc3F)nc12 (single isomer, unassigned) [Compound 101] in the records?
Reply: 82

Query: Recorded CDK9 HIBIT PQ Max (%) of CC(C)Oc1c(-c2cn[nH]c2)ncn2nc(Nc3ccc(S(=O)(=O)c4cccc(C(C)N5CCN(c6ccc7c(N8CCC(=O)NC8=O)nn(C)c7c6)CC5)c4)cc3F)nc12 (single isomer, unassigned) [Compound 99] , please.
Reply: 64

Query: Which CDK9 HIBIT PQ Max (%) is listed for CC(C)Oc1c(-c2cn[nH]c2)ncn2nc(Nc3ccc(S(=O)(=O)N4CCCC(CN5CCC(c6ccc7c(N8CCC(=O)NC8=O)nn(C)c7c6)CC5)C4)cc3F)nc12 (single isomer, unassigned) [Compound 95] ?
Reply: 71

====

- TESTED_TARGET: CCNE1 (Homo sapiens, UniProt P24864+P24941)
- Construct: host or cells: HEK293
- TEST_DETAILS: CCNE1 HIBIT PQ (protein quantification), degradation
- Type: cell-based
- SETTINGS: Max = Maximum
# CCNE1 HIBIT PQ Max (%) per record follows
Please respond with the number in % and leave the unit unwritten.

CC(C)Oc1c(-c2cn[nH]c2)ncn2nc(Nc3ccc(S(=O)(=O)N4CCCC(CN5CC(c6ccc7c(N8CCC(=O)NC8=O)nn(C)c7c6)C5)C4)cc3F)nc12 (racemic) :: 38

Query: Record Cc1c(S(=O)(=O)N(C)CCCN2CCC(c3ccc4c(c3)n(C)c(=O)n4C3CCC(=O)NC3=O)CC2)ccc(Nc2nc3c(OC(C)C)c(-c4cn[nH]c4)ncn3n2)c1F (racemic) : what is its CCNE1 HIBIT PQ Max (%) with CCNE1 (Homo sapiens, UniProt P24864+P24941)?
Reply: 76

Query: Kindly state the measured CCNE1 HIBIT PQ Max (%) obtained for CC(C)Oc1c(-c2cn[nH]c2)ncn2nc(Nc3ccc(S(=O)(=O)c4cccc(CC5CC(c6ccc7c(N8CCC(=O)NC8=O)nn(C)c7c6)C5)c4)cc3F)nc12 (stereo not shown) with CCNE1 (Homo sapiens, UniProt P24864+P24941).
Reply: 47

Query: Query for CCNE1 (Homo sapiens, UniProt P24864+P24941): what CCNE1 HIBIT PQ Max (%) does the record show for "CC(C)Oc1c(-c2cn[nH]c2)ncn2nc(Nc3ccc(S(=O)(=O)c4cccc(C[C@H]5C[C@@H](c6ccc7c(N8CCC(=O)NC8=O)nn(C)c7c6)C5)c4)cc3F)nc12" ?
Reply: 48

Hello, the source for this data is patent US20260062426A1, in case you need it.
